Target: P. falciparum DHODH (Plasmodium falciparum)
Construct: His6 (N)
Sequence (Q08210 158-569): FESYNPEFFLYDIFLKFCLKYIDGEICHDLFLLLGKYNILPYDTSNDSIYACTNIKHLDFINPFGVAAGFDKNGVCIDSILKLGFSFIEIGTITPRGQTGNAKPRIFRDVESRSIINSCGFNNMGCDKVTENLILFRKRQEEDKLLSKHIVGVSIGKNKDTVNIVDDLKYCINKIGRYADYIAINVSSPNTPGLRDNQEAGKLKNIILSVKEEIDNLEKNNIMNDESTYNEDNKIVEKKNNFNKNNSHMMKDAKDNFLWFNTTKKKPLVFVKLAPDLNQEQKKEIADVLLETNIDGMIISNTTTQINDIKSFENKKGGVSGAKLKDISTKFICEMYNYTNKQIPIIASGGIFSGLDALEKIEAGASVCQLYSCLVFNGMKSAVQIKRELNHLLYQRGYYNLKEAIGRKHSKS
Assay: DHODH inhibition, steady-state DCIP assay (PfDHODH)
Conditions: recombinant PfDHODH, DCIP method, 25°C, 5 nM enzyme
observable: pIC50
Conceptually, pIC50 converts a concentration in mol/L into minus its log10.

Sample answers from the record:
{"molecule": "CC[C@@](O)(c1ccc(F)c(Cl)c1)c1c2cnn(C3CC3)c(=O)c2nn1C (single isomer, unassigned)", "pIC50": 8.08}
{"molecule": "Cn1nc2c(=O)n(C3CC3)cnc2c1[C@](O)(c1ccc(C(F)(F)F)c(Cl)c1)C(F)(F)F (single isomer, unassigned)", "pIC50": 8.34}
{"molecule": "CCn1ccc2c([C@](O)(c3ccc(F)c(Cl)c3)C3CC3)n(C)nc2c1=O (single isomer, unassigned)", "pIC50": 7.77}
{"molecule": "CCn1ccc2c([C@@](O)(CC)c3ccc(F)c(Cl)c3)n(C)nc2c1=O (single isomer, unassigned)", "pIC50": 7.68}
{"molecule": "CCn1nc2c(=O)n(C3CC3)ncc2c1[C@@](O)(CC)c1cnc(C(F)(F)F)c(Cl)c1 (single isomer, unassigned)", "pIC50": 7.54}

Prompt: // fetch pIC50 given entry Cn1nc2c(=O)n(C3CC3)cnc2c1[C@](O)(c1cnc(C(F)(F)F)c(Cl)c1)C(F)(F)F (single isomer, unassigned)
Response: 7.74

Prompt: // fetch pIC50 given entry Cn1nc2c(=O)n(C3CC3)cnc2c1[C@](O)(c1cnc(C(F)(F)F)c(Cl)c1)C1CC1 (single isomer, unassigned)
Response: 7.66

Prompt: // fetch pIC50 given entry Cn1nc2c(=O)n(C3CC3)ccc2c1[C@](C)(O)c1ccc(F)c(Cl)c1 (single isomer, unassigned)
Response: 7.80

Prompt: // fetch pIC50 given entry CC[C@@](N)(c1cnc(C(F)(F)F)c(Cl)c1)c1c2ncn(C3CC3)c(=O)c2nn1C (single isomer, unassigned)
Response: 7.33

Prompt: // fetch pIC50 given entry Cn1nc2c(=O)n(C3CC3)ccc2c1[C@](C)(O)c1cnc(C(F)(F)F)c(Cl)c1
Response: 7.60

Prompt: // fetch pIC50 given entry CCn1ccc2c([C@](C)(O)c3cnc(C(F)(F)F)c(Cl)c3)n(C)nc2c1=O (single isomer, unassigned)
Response: 7.35

Prompt: // fetch pIC50 given entry CCn1ccc2c([C@](C)(O)c3ccc(F)c(Cl)c3)n(C)nc2c1=O (single isomer, unassigned)
Response: 7.77

Prompt: // fetch pIC50 given entry CC[C@@](O)(c1ccc(C(F)(F)F)c(Cl)c1)c1c2cnn(C3CC3)c(=O)c2nn1C (single isomer, unassigned)
Response: 8.21

Prompt: // fetch pIC50 given entry CCn1ccc2c([C@@](O)(CC)c3cnc(C(F)(F)F)c(Cl)c3)n(C)nc2c1=O (single isomer, unassigned)
Response: 7.89

* * *

Molecular target: P. vivax DHODH (Plasmodium vivax, UniProt A5K1N1)
Sequence (A5K1N1 entry or part of it): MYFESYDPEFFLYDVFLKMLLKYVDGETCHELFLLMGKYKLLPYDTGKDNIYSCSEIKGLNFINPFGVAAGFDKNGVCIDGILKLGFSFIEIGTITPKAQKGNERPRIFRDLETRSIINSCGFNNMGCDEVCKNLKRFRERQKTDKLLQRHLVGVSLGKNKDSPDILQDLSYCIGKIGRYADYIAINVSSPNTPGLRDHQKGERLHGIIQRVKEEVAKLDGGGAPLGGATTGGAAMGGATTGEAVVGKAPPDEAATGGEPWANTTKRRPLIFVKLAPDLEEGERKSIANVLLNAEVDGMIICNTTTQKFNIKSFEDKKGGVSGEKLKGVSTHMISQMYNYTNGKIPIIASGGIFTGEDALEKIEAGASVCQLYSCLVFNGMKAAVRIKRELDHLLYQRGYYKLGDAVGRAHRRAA
Test: DHODH inhibition, steady-state DCIP assay (PvDHODH)
Assay type: biochemical
Settings: recombinant PvDHODH, DCIP method, 25°C, 5 nM enzyme; read-out: P. vivax DHODH (IC50)
Flag rule - IC50 less than 9 nM flags 1; the remaining entries get -1.

Prompt: Input CCn1ccc2c([C@@](O)(CC)c3ccc(C(F)(F)F)nc3)n(C)nc2c1=O (single isomer, unassigned) ; condition: IC50 strictly below 9 nM. Does it hold?
Response: -1

Prompt: Input CCn1cc(C)c2c([C@H](N)c3ccc(C(F)(F)F)c(C#N)c3)n(C)nc2c1=O (single isomer, unassigned) ; condition: IC50 strictly below 9 nM. Does it hold?
Response: -1

Prompt: Input Cn1nc2c(=O)n(C3CC3)ncc2c1[C@](O)(c1ccc(C(F)(F)F)c(Cl)c1)C1CC1 (single isomer, unassigned) ; condition: IC50 strictly below 9 nM. Does it hold?
Response: -1

Prompt: Input Cn1nc2c(=O)n(C3CC3)ncc2c1[C@](N)(c1ccc(C(F)(F)F)c(Cl)c1)C1CC1 (single isomer, unassigned) ; condition: IC50 strictly below 9 nM. Does it hold?
Response: 1

Prompt: Input Cn1nc2c(=O)n(C3CC3)cnc2c1[C@](O)(c1ccc(C(F)(F)F)c(C#N)c1)C(F)(F)F (single isomer, unassigned) ; condition: IC50 strictly below 9 nM. Does it hold?
Response: -1

Prompt: Input CC[C@@](O)(c1cnc(C(F)(F)F)c(Cl)c1)c1c2ccn(C3CC3)c(=O)c2nn1C (single isomer, unassigned) ; condition: IC50 strictly below 9 nM. Does it hold?
Response: -1

* * *

Item-by-item account of IC50
Target: P. falciparum DHODH (Plasmodium falciparum)
Construct: His6 (N)
Assay: DHODH inhibition, steady-state DCIP assay (PfDHODH)
Conditions: recombinant PfDHODH, DCIP method, 25°C, 5 nM enzyme
Hi! Could you send only the number? It should be in nM, unit omitted.

Sample answers from the record:
{"molecule": "Cn1nc2c(=O)n(C3CC3)cnc2c1[C@](O)(c1cnc(C(F)(F)F)c(Cl)c1)C(F)F (single isomer, unassigned) [5-22]", "system": "P. falciparum DHODH (Plasmodium falciparum)", "IC50 / nM": 11}
{"molecule": "CCC(O)(c1cnc(C(F)(F)F)c(Cl)c1)c1c2cc(C)n(C3CC3)c(=O)c2nn1C (stereo not shown) [1-7]", "system": "P. falciparum DHODH (Plasmodium falciparum)", "IC50 / nM": 60}
{"molecule": "CC[C@@](O)(c1ccc(C(F)(F)F)c(C#N)c1)c1c2ccn(C3CC3)c(=O)c2nn1C (single isomer, unassigned) [1-5]", "system": "P. falciparum DHODH (Plasmodium falciparum)", "IC50 / nM": 17}

Prompt: Enter recorded IC50 with P. falciparum DHODH (Plasmodium falciparum) for CC[C@@](N)(c1ccc(C(F)(F)F)c(F)c1)c1c2ccn(C3CC3)c(=O)c2nn1C (single isomer, unassigned) [4-5] here.
Response: 16

* * *

Target: P. vivax DHODH (Plasmodium vivax, UniProt A5K1N1)
Assay: DHODH inhibition, steady-state DCIP assay (PvDHODH)
Type: biochemical
Details: recombinant PvDHODH, DCIP method, 25°C, 5 nM enzyme; read-out: P. vivax DHODH (IC50)
observable: pIC50
Conceptually, pIC50 converts a concentration in mol/L into minus its log10.

Sample answers from the record:
{"molecule": "Cn1nc2c(=O)n(C3CC3)cnc2c1[C@](N)(c1ccc(C(F)(F)F)c(Cl)c1)C(F)(F)F (single isomer, unassigned) [5-51]", "pIC50": 8.40}
{"molecule": "CCn1ccc2c([C@@](O)(CC)c3ccc(F)c(Cl)c3)n(C)nc2c1=O (single isomer, unassigned) [1-34]", "pIC50": 8.39}
{"molecule": "Cn1nc2c(=O)n(C3CC3)ccc2c1[C@](C)(O)c1ccc(F)c(Cl)c1 (single isomer, unassigned) [1-9]", "pIC50": 8.16}
{"molecule": "CC[C@@](N)(c1ccc(C(F)(F)F)c(Cl)c1)c1c2ncn(C3CC3)c(=O)c2nn1C (single isomer, unassigned) [4-26]", "pIC50": 8.28}
{"molecule": "CCn1cc(C)c2c([C@H](O)c3ccc(Cl)c(F)c3)n(C)nc2c1=O (single isomer, unassigned) [1-30]", "pIC50": 8.10}
{"molecule": "Cn1nc2c(=O)n(C3CC3)ccc2c1[C@](O)(c1ccc(C(F)(F)F)nc1)C1CC1 (single isomer, unassigned) [1-26]", "pIC50": 7.32}
{"molecule": "Cn1nc2c(=O)n(C3CC3)cnc2c1[C@](O)(c1cnc(C(F)(F)F)c(Cl)c1)C1CC1 (single isomer, unassigned) [3-3]", "pIC50": 8.08}
{"molecule": "CCn1cnc2c([C@](C)(O)c3ccc(C(F)(F)F)c(C#N)c3)n(C)nc2c1=O (single isomer, unassigned) [3-11]", "pIC50": 8.03}

Prompt: Enter recorded pIC50 with P. vivax DHODH (Plasmodium vivax, UniProt A5K1N1) for CC[C@@](N)(c1ccc(C(F)(F)F)c(F)c1)c1c2ccn(C3CC3)c(=O)c2nn1C (single isomer, unassigned) [4-5] here.
Response: 8.15

Prompt: Enter recorded pIC50 with P. vivax DHODH (Plasmodium vivax, UniProt A5K1N1) for CCn1nc2c(=O)n(C3CC3)ncc2c1[C@@](O)(CC)c1cnc(C(F)(F)F)c(Cl)c1 (single isomer, unassigned) [2-3] here.
Response: 7.96

Prompt: Enter recorded pIC50 with P. vivax DHODH (Plasmodium vivax, UniProt A5K1N1) for Cn1nc2c(=O)n(C3CC3)cnc2c1[C@](C)(N)c1ccc(C(F)(F)F)c(Cl)c1 (single isomer, unassigned) [4-20] here.
Response: 8.08

Prompt: Enter recorded pIC50 with P. vivax DHODH (Plasmodium vivax, UniProt A5K1N1) for Cn1nc2c(=O)n(C3CC3)ccc2c1[C@](O)(c1cnc(C(F)(F)F)c(Cl)c1)C1CC1 (single isomer, unassigned) [1-16] here.
Response: 7.64
